Listing of recorded z-score by entry.
- experiment: MM1S cell viability effects, profiling panel, calcein-AM fluorescence, 48 h, basal (AID 1165);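 also: viability of MM1S multiple myeloma cells under basal unstimulated conditions; test concentration not given here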
- condition-parameters: higher = more signal
Give the value as a plain number.

Before answering, review these 3 worked examples.
CCCCCCCCCCC(O)C1C=CC2C(=O)N(C)C(=O)C2N1NC(=O)OC(C)(C)C (centres undefined); -3.91
CC1CC/C=C\[C@H]2OC34C=CCN(c5ccc(Cl)cc5)C(=O)[C@H]3N(CCCCCO)C(=O)[C@]4(C)C2C(=O)O1 (some centres undefined); 0.743
CCC(CC)C(O)C1C=CC2C(=O)N(c3ccccc3)C(=O)C2N1Nc1ccc(C(C)C)cc1 (centres undefined); -0.393

Turning now to a further record.
Ask: Give me measured z-score, please, for this molecule: COc1cc2c(cc1OC)CN(C(=O)[C@@H]1[C@H]3C(=O)O[C@H](c4ccccc4)[C@H](c4ccccc4)N3[C@H](c3ccc(OCCO)cc3)[C@@]13C(=O)Nc1ccc(C#CC4(O)CCCCCC4)cc13)CC2
Reply: -0.0788

* * *

- tested-on: NADPH oxidase 5 (Homo sapiens)
- experiment: NOX5-dependent H2O2 signal modulators, primary screen, NOX inhibitor project, cell-based, HEK293-NOX5, Amplex Red fluorescence (AID 1161)
- condition-parameters: HEK293-NOX5, ionomycin, 45 min, higher = more signal
Decision: z-score compared against -0.2; not below it gives 1 (yes), below it gives 0 (no).

Use the examples below as a reference point.
CCCCO[C@H]1C[C@H]2C(I)=C[C@@H]1C(=O)[C@]21CO1; 0 (no)
COC(=O)[C@@]1(Cc2ccc(OC)cc2)[C@H]2c3cc(C(=O)N(C)C)n(C[C@H](O)CO)c3C[C@H]2CN1C(=O)c1ccccc1; 0 (no)

Ask: Please indicate if the recorded z-score for COc1cc(OC)c(C(O)C2C=CC3C(=O)N(c4ccccc4)C(=O)C3N2Nc2ccccc2)cc1Br (stereo not given) meets or exceeds -0.2.
Reply: 0 (no)

Ask: Quick check, z-score >= -0.2? COCCOC(=O)N1C(=O)[C@@]2(c3cc(C#CC4=CCCCC4)ccc31)[C@H](c1ccccc1OCCO)N1[C@H](c3ccccc3)[C@H](c3ccccc3)OC(=O)[C@H]1[C@@H]2C(=O)N1CCCCCCC1
Reply: 1 (yes)

Ask: Is z-score for CC(C)C(CO)N1C(=O)[C@@H]2C3C(=O)OCCC/C=C\[C@H]3OC23C=CCN(C(C)(C)C)C(=O)[C@@H]13 (stereo not given in full) at or above -0.2?
Reply: 1 (yes)

Ask: Please indicate if the recorded z-score for O=C1O[C@H](c2ccccc2)[C@H](c2ccccc2)N2[C@H]1[C@@H](C(=O)Nc1nc3ccccc3s1)[C@]1(C(=O)Nc3ccccc31)[C@H]2c1ccc(OCCO)cc1 meets or exceeds -0.2.
Reply: 1 (yes)

Ask: Dear colleague, could you confirm whether CCC(CC)C(O)C1C=CC2C(=O)N(c3ccccc3)C(=O)C2N1Nc1ccc(C(C)C)cc1 (stereo not given) has z-score at or above -0.2?
Reply: 0 (no)

Ask: State whether the measured z-score reaches -0.2, counting equality as reaching it, for CN(C)CCCNC(=O)[C@@H]1c2ccccc2C(=O)N(Cc2ccccc2Cl)[C@H]1c1ccc(CO)cc1
Reply: 1 (yes)

Ask: # check: z-score of COC(=O)[C@@]1(Cc2ccc(OC)cc2)[C@@H]2C(=CC(=O)[C@H]2CC(=O)C(=O)N(C)C)CN1C(=O)c1ccccc1 is greater than or equal to -0.2
Reply: 1 (yes)

Ask: Could you verify whether the entry COC(=O)[C@@]1(Cc2ccc(F)cc2)[C@H]2c3cc(C(=O)N(C)C)n(CCc4ccc(O)c(OC)c4)c3C[C@H]2CN1C(=O)c1ccccc1 shows z-score of no less than -0.2?
Reply: 0 (no)

Ask: State whether the measured z-score reaches -0.2, counting equality as reaching it, for C=CCOC(=O)[C@H]1[C@@H]2C(=O)O[C@@H](c3ccccc3)[C@@H](c3ccccc3)N2[C@@H](c2ccc(OCCOC(=O)[C@H]3C[C@H]4C(=O)N[C@@H](CC(C)C)C(=O)N4[C@H]3c3cccc(OCCO)c3)cc2)[C@]12C(=O)Nc1ccc(I)cc12
Reply: 1 (yes)

* * *

- Test system: Inhibin beta A chain (activin A)
- experiment: INHBA (activin A) binders on microarrays, primary screen, biochemical, small-molecule microarray, 635 nm fluorescence scan (AID 1107);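 also: mouse activin A protein probed at 4.33 µg/mL on printed slides; score merges bound-protein fluorescence near 667 nm with spot signal-to-noise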
- condition-parameters: small-molecule microarray binding, higher = more signal
observation-type: composite z-score
Number only, no unit.

Ask: Provide one value: measured composite z-score of O=C1c2ccccc2[C@](Cc2ccccc2I)(C(=O)NCC(F)(F)F)[C@H](c2ccc(CO)cc2)N1C1CCCCC1
Reply: 0.82

Ask: Specify measured composite z-score for COCCOC(=O)N1C(=O)[C@@]2(c3cc(C#CC4(O)CCCCCC4)ccc31)[C@H](c1ccc(O)cc1)N1[C@H](c3ccccc3)[C@H](c3ccccc3)OC(=O)[C@H]1[C@@H]2C(=O)NC[C@H](O)c1ccccc1 .
Reply: -0.237

Ask: Please give measured composite z-score of the following entry: CC(C)(C)N1CC=CC23O[C@@H]4C=CCCOC(=O)C4[C@H]2C(=O)N(CCO)[C@@H]3C1=O (stereo partly drawn)
Reply: 0.0863

Ask: # return recorded composite z-score for entry COCCOC(=O)N1C(=O)[C@@]2(c3cc(C#CC4=CCCCC4)ccc31)[C@H](c1ccc(O)cc1)N1[C@H](c3ccccc3)[C@H](c3ccccc3)OC(=O)[C@H]1[C@@H]2C(=O)N1CCN(c2ncccn2)CC1
Reply: -0.918

Ask: Quick one: give measured composite z-score for COC(=O)C1=CC(CCCO)=CC(C2CC2)N(C)C=C1C(=O)OC (stereo not drawn)
Reply: 0.576

* * *

- Test system: Human papillomavirus type 1a protein E7 (residues 44-93)
- experiment: HPV1a E7 fragment binders on microarrays, primary screen, biochemical, small-molecule microarray, residues 44-93, 635 nm fluorescence (AID 1108);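 also: E7 fragment applied at 1 µg/mL in TBST for 1 h at 4 C; score combines spot fluorescence with its signal to noise ratio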
- condition-parameters: small-molecule microarray binding, fluorescence 635 nm; higher = more signal
observation-type: composite z-score

Answered cases to consult:
COCCOC(=O)N1C(=O)[C@@]2(c3cc(C#Cc4ccc(OC)cc4)ccc31)[C@H](C(=O)Nc1nc3ccccc3s1)[C@H]1C(=O)O[C@H](c3ccccc3)[C@H](c3ccccc3)N1[C@@H]2c1ccc(O)cc1; 1.38
CCCCCCCCCCC(O)C1C=CC2C(=O)N(C)C(=O)C2N1Nc1ccc([N+](=O)[O-])cc1[N+](=O)[O-] (stereo not drawn); 1.38

In the following, a different molecule is considered.
Ask: Name the recorded composite z-score of CCOC(=O)C1=CC[C@@H](c2ccc(OCc3ccccc3)c(OC)c2)N(S(=O)(=O)c2ccc(C)cc2)[C@H]1c1ccc(SC)cc1 , assay system Human papillomavirus type 1a protein E7 (residues 44-93).
Reply: 1.4

* * *

- experiment: binders from COS7 lysate, DM2A8 probe, primary screen, torsin A project, cell lysate, small-molecule microarray, fluorescence 635/667 (AID 1065)
- condition-parameters: higher = more signal, COS7 lysate expressing mutant human TOR1A
Quick rule for you: composite z-score at 0.4 or higher means yes (1), lower means no (0).

Ask: Evaluate CCOC(=O)C1=CC[C@@H](c2ccccc2C(F)(F)F)N(S(=O)(=O)c2ccc(C)cc2)[C@H]1c1ccc(C#N)cc1 : composite z-score at minimum 0.4?
Reply: no (0)

* * *

- tested-on: Torsin-1A (Homo sapiens) (UniProt O14656)
- Sequence (O14656 whole entry, looked up): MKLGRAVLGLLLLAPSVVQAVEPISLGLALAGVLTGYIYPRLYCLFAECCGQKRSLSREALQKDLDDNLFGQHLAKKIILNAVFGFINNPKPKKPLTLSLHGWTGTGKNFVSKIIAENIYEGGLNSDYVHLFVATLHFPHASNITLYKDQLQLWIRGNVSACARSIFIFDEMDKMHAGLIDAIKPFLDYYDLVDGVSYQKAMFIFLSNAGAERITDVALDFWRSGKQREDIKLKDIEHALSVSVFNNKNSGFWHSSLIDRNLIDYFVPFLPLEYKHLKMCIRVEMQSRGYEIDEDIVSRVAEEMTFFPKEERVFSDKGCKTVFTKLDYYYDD
- experiment: small-molecule binders of mutant TOR1A in lysate, primary screen, cell lysate, small-molecule microarray, COS7 lysate, 635/667 nm fluorescence (AID 1150);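 also: score pools 667 nm emission and signal to noise measuring lysate protein binding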
- condition-parameters: COS7 hTOR1A mutant lysate, 635 nm fluorescence, higher = more signal
observation-type: composite z-score
Reply with the value as a number alone.

Known composite z-score results, listed for orientation:
CN1C(=O)C2C=CC(C(O)c3ccc(F)cc3)N(Nc3ccccc3)C2C1=O (stereo not drawn); 0.363
O=C(NCC(F)(F)F)[C@@H]1c2ccccc2C(=O)N(Cc2cc(F)cc(C(F)(F)F)c2)[C@H]1c1ccc(CO)cc1; -1.22
CC(=O)NCCCC[C@@H]1NC(=O)[C@@H]2C[C@H](C(=O)NCCCC[N+](C)(C)C)[C@H](c3ccc(O)cc3)N2C1=O; 0.547
O=C1C2C=CC(C(O)c3ccc(Br)cc3)N(Nc3ccccc3F)C2C(=O)N1c1ccccc1 (stereo not drawn); -0.0946
[N-]=[N+]=NCc1ccccc1C[C@@]1(C(=O)N2CCCCC2)N=C(c2ccc(OCCCO)cc2)O[C@@H]1c1ccccc1; 0.601

Ask: Determine from records and report composite z-score for C=C(COC)C(=O)CC[C@@H](OC(=O)c1cccnc1)c1ccc(OCCO)cc1
Reply: 0.321

Ask: Note down composite z-score recorded for C=CCC(OC(C)=O)[C@@H]1[C@@H](N(Cc2ccc(-c3cccc(C(F)(F)F)c3)o2)C(=O)c2ccc(-c3ccccc3)cc2)c2cc(OCCCO)ccc2N1C(=O)c1ccc2ccccc2n1 (stereo partly drawn)
Reply: -0.0764

Ask: Give reported composite z-score value for C[C@]1(C(=O)NC2CC2)c2ccccc2C(=O)N(Cc2ccccc2)[C@H]1c1ccc(CO)cc1
Reply: -0.489

Data origin, for the record: PubChem BioAssay
